# assay_system: human EGF (epithelial cell growth factor) receptor tyrosine kinase (Homo sapiens)
# Construct: to obtain an A431 cell membrane fraction, and this fraction was provided for measurement as a partially purified EGF receptor; endogenous in cells
# Sequence (P00533 25-1210): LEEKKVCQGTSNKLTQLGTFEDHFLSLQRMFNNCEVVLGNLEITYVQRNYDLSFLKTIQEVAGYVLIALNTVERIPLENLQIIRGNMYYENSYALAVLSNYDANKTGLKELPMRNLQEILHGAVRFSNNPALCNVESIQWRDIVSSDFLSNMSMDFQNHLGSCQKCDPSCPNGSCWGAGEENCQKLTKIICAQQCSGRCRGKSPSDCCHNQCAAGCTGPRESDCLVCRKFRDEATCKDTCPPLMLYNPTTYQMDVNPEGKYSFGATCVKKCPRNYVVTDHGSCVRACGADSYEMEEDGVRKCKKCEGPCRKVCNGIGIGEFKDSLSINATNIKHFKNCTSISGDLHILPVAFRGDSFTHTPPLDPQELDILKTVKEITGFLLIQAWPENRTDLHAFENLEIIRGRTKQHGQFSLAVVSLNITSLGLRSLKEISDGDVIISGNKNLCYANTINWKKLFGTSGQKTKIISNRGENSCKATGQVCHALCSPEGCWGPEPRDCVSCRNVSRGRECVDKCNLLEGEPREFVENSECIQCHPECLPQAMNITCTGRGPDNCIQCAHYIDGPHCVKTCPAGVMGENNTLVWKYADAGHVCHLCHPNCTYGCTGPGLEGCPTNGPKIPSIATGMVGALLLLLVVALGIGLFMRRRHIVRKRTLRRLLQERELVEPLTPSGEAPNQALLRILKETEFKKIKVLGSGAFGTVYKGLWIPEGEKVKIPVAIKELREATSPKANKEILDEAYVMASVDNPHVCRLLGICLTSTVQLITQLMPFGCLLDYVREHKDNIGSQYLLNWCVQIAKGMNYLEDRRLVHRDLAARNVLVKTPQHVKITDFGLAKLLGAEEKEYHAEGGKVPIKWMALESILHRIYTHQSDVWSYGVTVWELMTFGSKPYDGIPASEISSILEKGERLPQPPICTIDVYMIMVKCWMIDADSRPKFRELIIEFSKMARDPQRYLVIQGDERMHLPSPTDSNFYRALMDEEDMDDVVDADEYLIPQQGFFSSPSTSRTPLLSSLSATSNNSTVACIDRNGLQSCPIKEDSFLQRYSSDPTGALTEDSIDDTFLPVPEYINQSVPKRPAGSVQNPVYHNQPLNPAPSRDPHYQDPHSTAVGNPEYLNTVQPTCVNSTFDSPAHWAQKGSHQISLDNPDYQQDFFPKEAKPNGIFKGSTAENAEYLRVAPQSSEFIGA
# assay_protocol: Tyrosine kinase inhibiting activity (EGF receptor partially purified from A431 cell membrane fraction, RR-SRC peptide substrate, gamma-32P-ATP)
# experimental_parameters: 10 μM ATP, 1% DMSO, in ice for 30 minutes
pIC50: −log10 of the molar value.
Overview of recorded pIC50 for various molecules
measured_property: pIC50

{"smiles_record": "CCN(CC)C(C)(C)C(=CC(=O)c1ccc(OC)c(OC)c1)S(=O)(=O)c1ccccc1", "assay_system": "human EGF (epithelial cell growth factor) receptor tyrosine kinase (Homo sapiens)", "measured_property": "pIC50", "reported_measurement": 5.77}
{"smiles_record": "COc1ccc(C(=O)C=C(CN(C(C)C)C(C)C)S(=O)(=O)c2ccccc2)cc1OC", "assay_system": "human EGF (epithelial cell growth factor) receptor tyrosine kinase (Homo sapiens)", "measured_property": "pIC50", "reported_measurement": 4.55}
{"smiles_record": "CCN(CC)C(C)(C)C(C#N)=CC(=O)c1ccc(OC)c(OC)c1", "assay_system": "human EGF (epithelial cell growth factor) receptor tyrosine kinase (Homo sapiens)", "measured_property": "pIC50", "reported_measurement": 5.24}
{"smiles_record": "CCN(CC)C(C)(C)C(=CC(=O)c1ccc(OC)c(OC)c1)S(=O)(=O)c1ccc([N+](=O)[O-])cc1", "assay_system": "human EGF (epithelial cell growth factor) receptor tyrosine kinase (Homo sapiens)", "measured_property": "pIC50", "reported_measurement": 5.85}

Data provenance is patent US5789448A.
